B1: library; a variant is named by its letters at N, in order (parent)
chain: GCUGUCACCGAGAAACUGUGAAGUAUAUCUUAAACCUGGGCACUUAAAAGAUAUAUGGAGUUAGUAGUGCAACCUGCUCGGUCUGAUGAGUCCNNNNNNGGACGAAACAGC

# Variants of: B1
# procedure.details: normalized RNA/DNA level with ligand (relative to sTRSVctl = 100) (log10 (% of sTRSVctl)); HEK293T; ligand: cyclic di-GMP (c-di-GMP-II aptamer); ligand concentration (+) RNA-Seq: 1 mM; higher = less ribozyme self-cleavage, higher mRNA level
# conditions.used: reporter: mCherry (pCS4076), ligand present: yes
Each record here notes measured normalized RNA/DNA level with ligand (log10).
measured.quantity: normalized RNA/DNA level with ligand (log10)

[[record]]
mutation_code = "UCCGGA"
recorded_measurement = 1.8

[[record]]
mutation_code = "GCUGCA"
recorded_measurement = 1.85

[[record]]
mutation_code = "CUCCGC"
recorded_measurement = 1.91

[[record]]
mutation_code = "CGUCGG"
recorded_measurement = 1.81

[[record]]
mutation_code = "UCACCU"
recorded_measurement = 1.89

[[record]]
mutation_code = "AAAACA"
recorded_measurement = 1.7

